# target.system: aurora A kinase (AURKA) (Homo sapiens, UniProt O14965)
# Construct: purchased BPS Bioscience (assay run externally by the vendor)
# Sequence (O14965 whole entry): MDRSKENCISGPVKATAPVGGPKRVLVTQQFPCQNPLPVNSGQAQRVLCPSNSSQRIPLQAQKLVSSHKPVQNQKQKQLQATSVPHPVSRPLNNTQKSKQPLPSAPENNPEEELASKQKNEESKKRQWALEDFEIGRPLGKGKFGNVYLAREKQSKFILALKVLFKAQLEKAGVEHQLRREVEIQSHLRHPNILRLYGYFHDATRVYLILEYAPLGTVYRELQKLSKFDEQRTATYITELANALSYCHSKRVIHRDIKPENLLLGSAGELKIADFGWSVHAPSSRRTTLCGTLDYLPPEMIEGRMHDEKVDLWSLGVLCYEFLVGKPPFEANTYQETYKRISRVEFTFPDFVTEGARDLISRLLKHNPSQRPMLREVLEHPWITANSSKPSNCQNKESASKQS
# experiment.notes: ADP-Glo kinase assay, Aurora A
# Type: biochemical
# test.settings: Log[nM] 0; Set3
metric: Aurora A % Activity Set3 (%)

| molecule | recorded.measurement |
| --- | --- |
| Brc1ccc(Nc2ncnc3[nH]ccc23)cc1 | 96 |
| Nc1nc(Nc2cccc(Br)c2)c2cc[nH]c2n1 | 99 |
| Cc1cccc(Nc2ncnc3[nH]ccc23)c1 | 95 |
| Cc1ccc(Nc2ncnc3[nH]ccc23)cc1 | 105 |
| FC(F)(F)c1cccc(Nc2ncnc3[nH]ccc23)c1 | 96 |
| Clc1ccc(Nc2ncnc3[nH]ccc23)cc1Br | 95 |
| Clc1ccccc1Nc1ncnc2[nH]ccc12 | 94 |
| Clc1ccc(Nc2ncnc3[nH]ccc23)cc1Cl | 103 |
| c1ccc(Cc2ccc(Nc3ncnc4[nH]ccc34)cc2)cc1 | 104 |
| COc1ccc(Nc2ncnc3[nH]ccc23)cc1 | 88 |
| CN[C@@H]1C[C@H]2O[C@@](C)([C@@H]1OC)n1c3ccccc3c3c4c(c5c6ccccc6n2c5c31)C(=O)NC4 [Staurosporine, staurosporine, reference compound] | 109 |
| Brc1cccc(Nc2ncnc3[nH]ccc23)c1 | 94 |
| c1ccc(Nc2ncnc3[nH]ccc23)cc1 | 92 |
| Clc1ccc(Nc2ncnc3[nH]ccc23)cc1 | 97 |
| Clc1cccc(Nc2ncnc3[nH]ccc23)c1 | 90 |
| Fc1cc(Nc2ncnc3[nH]ccc23)ccc1Cl | 100 |
| c1ccc(Oc2ccc(Nc3ncnc4[nH]ccc34)cc2)cc1 | 93 |
| Cc1ccccc1Nc1ncnc2[nH]ccc12 | 102 |

* * *

# target.system: EGFR (Homo sapiens, UniProt P00533)
# Sequence (P00533 25-1210): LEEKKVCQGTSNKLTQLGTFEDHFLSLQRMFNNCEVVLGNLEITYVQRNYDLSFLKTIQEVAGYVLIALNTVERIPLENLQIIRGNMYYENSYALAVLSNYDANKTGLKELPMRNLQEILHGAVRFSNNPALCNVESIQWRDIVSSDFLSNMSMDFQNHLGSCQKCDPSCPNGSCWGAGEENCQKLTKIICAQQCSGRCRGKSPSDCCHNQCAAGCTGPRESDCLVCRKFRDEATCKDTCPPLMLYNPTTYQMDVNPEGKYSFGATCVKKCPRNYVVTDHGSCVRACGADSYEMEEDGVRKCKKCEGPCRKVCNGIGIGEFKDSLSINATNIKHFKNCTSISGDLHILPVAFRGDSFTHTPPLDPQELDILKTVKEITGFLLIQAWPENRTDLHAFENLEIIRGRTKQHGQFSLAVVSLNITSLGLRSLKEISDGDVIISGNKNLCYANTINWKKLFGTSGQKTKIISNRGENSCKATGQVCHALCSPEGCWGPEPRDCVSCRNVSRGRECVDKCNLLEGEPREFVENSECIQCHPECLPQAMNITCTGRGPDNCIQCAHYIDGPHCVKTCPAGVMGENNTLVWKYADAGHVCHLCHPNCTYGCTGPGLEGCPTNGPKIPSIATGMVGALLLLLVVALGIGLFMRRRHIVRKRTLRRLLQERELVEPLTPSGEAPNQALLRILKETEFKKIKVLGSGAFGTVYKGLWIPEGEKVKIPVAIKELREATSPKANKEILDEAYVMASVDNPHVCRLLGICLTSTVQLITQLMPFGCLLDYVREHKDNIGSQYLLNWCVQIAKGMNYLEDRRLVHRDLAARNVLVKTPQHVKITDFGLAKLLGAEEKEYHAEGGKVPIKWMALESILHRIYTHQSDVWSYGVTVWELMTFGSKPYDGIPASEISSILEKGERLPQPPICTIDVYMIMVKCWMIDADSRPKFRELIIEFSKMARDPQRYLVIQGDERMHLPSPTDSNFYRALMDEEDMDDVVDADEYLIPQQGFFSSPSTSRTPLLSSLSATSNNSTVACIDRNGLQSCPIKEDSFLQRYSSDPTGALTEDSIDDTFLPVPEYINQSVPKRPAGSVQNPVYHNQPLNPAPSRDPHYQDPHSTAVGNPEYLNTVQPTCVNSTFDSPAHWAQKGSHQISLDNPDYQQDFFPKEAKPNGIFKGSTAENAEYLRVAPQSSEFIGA
# experiment.notes: ADP-Glo kinase assay, EGFR
# Format: biochemical
# Parameters: purchased BPS Bioscience (assay run externally by the vendor)
# test.settings: Log[nM] 1.0; Set2
EGFR % Activity Set2: recorded values
metric: EGFR % Activity Set2

| compound | recorded.measurement |
| --- | --- |
| Clc1cccc(Nc2ncnc3[nH]ccc23)c1 [Compound 11] | 34% |
| COc1ccc(Nc2ncnc3[nH]ccc23)cc1 [Compound 6] | 110% |
| Clc1ccc(Nc2ncnc3[nH]ccc23)cc1 [Compound 4] | 97% |
| c1ccc(Oc2ccc(Nc3ncnc4[nH]ccc34)cc2)cc1 [Compound 17] | 91% |
| Cc1cccc(Nc2ncnc3[nH]ccc23)c1 [Compound 12] | 75% |
| Cc1ccccc1Nc1ncnc2[nH]ccc12 [Compound 15] | 101% |
| Cc1ccc(Nc2ncnc3[nH]ccc23)cc1 [Compound 9] | 109% |
| Clc1ccc(Nc2ncnc3[nH]ccc23)cc1Cl [Compound 5] | 46% |
| Brc1cccc(Nc2ncnc3[nH]ccc23)c1 [Compound 2] | 29% |
| Clc1ccccc1Nc1ncnc2[nH]ccc12 [Compound 14] | 90% |
| Fc1cc(Nc2ncnc3[nH]ccc23)ccc1Cl [Compound 3] | 37% |
| Clc1ccc(Nc2ncnc3[nH]ccc23)cc1Br [Compound 7] | 17% |
| Nc1nc(Nc2cccc(Br)c2)c2cc[nH]c2n1 [Compound 8] | 102% |
| Brc1ccc(Nc2ncnc3[nH]ccc23)cc1 [Compound 10] | 90% |
| c1ccc(Cc2ccc(Nc3ncnc4[nH]ccc34)cc2)cc1 [Compound 18] | 83% |
| c1ccc(Nc2ncnc3[nH]ccc23)cc1 [Compound 1] | 110% |
| FC(F)(F)c1cccc(Nc2ncnc3[nH]ccc23)c1 [Compound 13] | 76% |
